test: Human PK, second comparative study: single dose food and PPI assessment of 100 mg powder-in-capsule (Panels J-M); format: in vivo; details: plasma, oral, 100 mg PIC single dose, Panel M: high fat breakfast + rabeprazole 20 mg BID, read-out: plasma AUClast, Mean
parameter_measured: AUC(0-t) (µM·h)
Please respond with the number in µM·h and leave the unit unwritten.

Prompt: Requested field: AUC(0-t). Item: C[C@H]1CN(C2COC2)CCN1c1ccc(Nc2cc(-c3ccnc(N4CCn5c(cc6c5CC(C)(C)C6)C4=O)c3CO)cn(C)c2=O)nc1 [Compound (I) free base]
Response: 0.642

====

experiment: Human PK, second comparative study: single dose food and PPI assessment of 100 mg powder-in-capsule (Panels J-M); type: in vivo; conditions: plasma, oral, 100 mg, 100 mg PIC single dose, Panel J: fasted, no PPI, read-out: plasma Tmax, Mean
parameter_measured: Tmax (h)
Use h as the unit, but write only the number.

Prompt: Dear colleague, I am looking for the recorded Tmax of the following compound: C[C@H]1CN(C2COC2)CCN1c1ccc(Nc2cc(-c3ccnc(N4CCn5c(cc6c5CC(C)(C)C6)C4=O)c3CO)cn(C)c2=O)nc1 [Compound (I) free base]
Response: 1.5

====

Experiment: Human PK, second comparative study: single dose food and PPI assessment of 100 mg powder-in-capsule (Panels J-M)
Format: in vivo
Settings: plasma, oral, 100 mg PIC single dose, Panel M: high fat breakfast + rabeprazole 20 mg BID, read-out: plasma AUC0-24, Median
From the text: The protocol is detailed Table 24 below wherein each panel contained 10 human subjects.
parameter_measured: AUC(0-t) (µM·h)
The reply should contain only the number, in µM·h.

Prompt: Reported AUC(0-t), molecule C[C@H]1CN(C2COC2)CCN1c1ccc(Nc2cc(-c3ccnc(N4CCn5c(cc6c5CC(C)(C)C6)C4=O)c3CO)cn(C)c2=O)nc1 [Compound (I) free base] : ____
Response: 0.52

====

test: Solubility of compound (I) free base in buffers of varying pH, FeSSIF and FaSSIF; assay type: physicochemical; details: aqueous buffer, pH 2.6, aqueous buffer; read-out: aqueous solubility
parameter_measured: solubility

Prompt: Given the molecule CC1CN(C2COC2)CCN1c1ccc(Nc2cc(-c3ccnc(N4CCn5c(cc6c5CC(C)(C)C6)C4=O)c3CO)cn(C)c2=O)nc1 (stereo not shown) [Compound (A)] , what is its reported solubility?
Response: ~6500 µg/mL

====

test: Solubility of compound (I) free base in buffers of varying pH, FeSSIF and FaSSIF; format: physicochemical; details: FeSSIF (pH 5); read-out: Solubility
parameter_measured: solubility (µg/mL)
Unit µg/mL implied. Number only.

Prompt: Fill in the blank: the reported solubility of C[C@H]1CN(C2COC2)CCN1c1ccc(Nc2cc(-c3ccnc(N4CCn5c(cc6c5CC(C)(C)C6)C4=O)c3CO)cn(C)c2=O)nc1 [Compound (I) free base] is ____.
Response: 18

====

assay: Human PK, second comparative study: single dose food and PPI assessment of 100 mg powder-in-capsule (Panels J-M); type: in vivo; conditions: plasma, oral, 100 mg PIC single dose, Panel L: fasted + rabeprazole 20 mg BID, read-out: plasma AUC0-24, Median
parameter_measured: AUC(0-t)

Prompt: Which measured AUC(0-t) value corresponds to C[C@H]1CN(C2COC2)CCN1c1ccc(Nc2cc(-c3ccnc(N4CCn5c(cc6c5CC(C)(C)C6)C4=O)c3CO)cn(C)c2=O)nc1 [Compound (I) free base] ?
Response: 160 nM·h
